Target protein (sequence): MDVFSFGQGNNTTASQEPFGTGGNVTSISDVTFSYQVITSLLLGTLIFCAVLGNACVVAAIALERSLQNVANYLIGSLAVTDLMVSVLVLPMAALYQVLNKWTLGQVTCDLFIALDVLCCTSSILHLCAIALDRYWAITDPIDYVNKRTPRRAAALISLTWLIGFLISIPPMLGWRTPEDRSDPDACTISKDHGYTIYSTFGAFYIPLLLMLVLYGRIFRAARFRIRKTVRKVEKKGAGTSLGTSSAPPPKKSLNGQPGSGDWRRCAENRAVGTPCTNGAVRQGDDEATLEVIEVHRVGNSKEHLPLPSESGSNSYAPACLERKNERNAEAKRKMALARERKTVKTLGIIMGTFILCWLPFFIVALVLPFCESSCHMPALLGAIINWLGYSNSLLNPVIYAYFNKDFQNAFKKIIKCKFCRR
quantity-kind: Ki (nM)

smiles-code | unit-annotation | Ki
N#Cc1ccccc1N1CCN(CCCn2c(O)c3n(c2=O)CCCC3)CC1 | nM | 33
O=c1n(CCCN2CCN(c3cccc(Br)c3)CC2)c(O)c2n1CCC2 | nM | 33

----------
Target sequence: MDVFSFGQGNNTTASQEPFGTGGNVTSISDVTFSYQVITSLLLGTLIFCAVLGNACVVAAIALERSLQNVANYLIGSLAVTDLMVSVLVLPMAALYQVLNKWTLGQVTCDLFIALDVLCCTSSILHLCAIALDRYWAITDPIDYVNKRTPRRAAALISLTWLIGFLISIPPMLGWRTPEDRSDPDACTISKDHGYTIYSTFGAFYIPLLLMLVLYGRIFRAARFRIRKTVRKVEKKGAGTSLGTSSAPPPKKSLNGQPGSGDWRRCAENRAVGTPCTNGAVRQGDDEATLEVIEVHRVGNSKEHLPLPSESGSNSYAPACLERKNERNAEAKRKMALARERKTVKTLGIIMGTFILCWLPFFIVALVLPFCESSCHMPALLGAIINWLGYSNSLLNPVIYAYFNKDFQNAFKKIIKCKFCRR
pKi: −log10 of the molar value.
quantity-kind: pKi

Answered cases to consult:
smiles-code | readout-value
Nc1cccc(N2CCN(CCCn3c(O)c4n(c3=O)CCC4)CC2)c1 | < 6.00
CC(C)C(=O)Nc1cccc(N2CCN(CCCn3c(O)c4n(c3=O)CCCC4)CC2)c1 | < 6.00

// below: pKi requested for another compound
Problem: Return reported pKi; argument: "CCCNC(=O)c1ccccc1N1CCN(CCCn2c(O)c3n(c2=O)CCC3)CC1"
Solution: < 6.00
